Test system: voltage-sensitive Na^+ channels
Assay: Electrophysiological assay: whole-cell patch-clamp of Na^+ currents in acutely dissociated hippocampal neurons
Type: cell-based, rat
Settings: for inactivated Na^+ channels; read-out: apparent antagonist dissociation constant (Kd)

querySmiles | Kd
NC(=O)NN=Cc1ccc(Oc2ccc(F)cc2)cc1 | ~600 nM

----------
System: maximal electroshock-induced seizures (MES)
Assay: Maximal electroshock-induced seizure (MES) test
Assay type: in vivo
Conditions: Mus musculus, po, 0.5 h; mice, determined as described in example 38; read-out: MES (ED50 mg/kg)

querySmiles | ED50 (mg/kg)
CCCCOc1ccc(Oc2ccc(C=NNC(N)=O)cc2)cc1 | 14.9
NC(=O)NN=Cc1ccc(OC2CCCCCC2)cc1 | 3.2
CN(NCc1ccc(Oc2ccc(F)cc2)cc1)C(N)=O | 3.2
CN(N=Cc1ccc(Oc2ccc(F)cc2)c(F)c1)C(N)=O | 0.9
NC(=O)NN=Cc1ccc(Oc2ccc(F)cc2)cc1 | 1.6
NC(=O)NN=Cc1ccc(-c2ccc(F)cc2)c(F)c1 | 3
NC(=O)NN=Cc1ccc(Oc2ccc3c(c2)OCO3)cc1 | 3.4
NC(=O)NN=Cc1ccc(Oc2ccc3c(c2)CCC3)cc1 | 1.7
